Collected composite z-score values appear next to each entry.
- run-description: binders of probe aFGF10 on microarray, primary screen, stem cell growth factor project, biochemical, small-molecule microarray, fluorescence 635/667 (AID 1071);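 further: score merges 667 nm spot intensity and signal to noise from triplicate slides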
- run-conditions: higher = more signal
measurement-type: composite z-score

{"columns": ["compound", "measured"],
 "data": [
  ["C=CC(COC(C)=O)NS(=O)(=O)c1ccc(Br)cc1 (centres undefined)", 0.366],
  ["C=CCNC(=O)[C@H]1[C@@H]2C(=O)O[C@@H](c3ccccc3)[C@@H](c3ccccc3)N2[C@@H](c2ccc(O)cc2)[C@]12C(=O)N(C(=O)OCCOC)c1ccc(C#CCCO)cc12", 0.932],
  ["COC(=O)c1ccc(OC)c(/C=C\\CC(OC(C)=O)c2ccccc2)c1 (centres undefined)", 0.229],
  ["C=CCC(OC(C)=O)[C@@H]1[C@@H](N(Cc2cccc3ccccc23)C(=O)c2ccc(C)cc2)c2cc(OCCCO)ccc2N1C(=O)Cc1ccc(OC)cc1 (some centres undefined)", 0.29]
]}

###

- Tested on: Fibrinogen (Alexa647-labelled)
- run-description: fibrinogen binders on compound microarrays, profiling panel, artefact control for SMM control-protein annotation, biochemical, small-molecule microarray, 635/667 nm fluorescence (AID 1131);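 further: z-score merges 667 nm fluorescence with per-spot signal-to-noise over triplicate slides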
- run-conditions: fibrinogen-A647 binding fluorescence, higher = more signal

{"columns": ["smiles-code", "composite z-score"],
 "data": [
  ["COc1ccc(C#Cc2ccc3c(c2)[C@]2(C(=O)N3)[C@H](c3ccc(O)cc3)N3[C@H](c4ccccc4)[C@H](c4ccccc4)OC(=O)[C@H]3[C@@H]2C(=O)NC[C@H](O)c2ccccc2)cc1", 0.556],
  ["C=CCNC(=O)[C@@H]1[C@H]2C(=O)O[C@H](c3ccccc3)[C@H](c3ccccc3)N2[C@H](c2ccccc2OCCO)[C@@]12C(=O)Nc1ccc(C#CC3=CCCCC3)cc12", 0.9],
  ["C=C[C@@H](COC(C)=O)N(Cc1ccc([N+](=O)[O-])cc1)S(=O)(=O)c1ccc(Br)cc1", 0.958],
  ["C[C@]1(C(=O)NCc2ccccc2)c2ccccc2C(=O)N(Cc2ccc(OC(F)(F)F)cc2)[C@H]1c1ccc(CO)cc1", -0.38],
  ["O=C1C[C@@](C(=O)NC2CC2)(c2ccc([N+](=O)[O-])cc2)[C@@H](c2ccc(CO)cc2)N1CC12CC3CC(CC(C3)C1)C2", 0.934],
  ["C[C@]1(C(=O)NCc2ccccc2)c2ccccc2C(=O)N(Cc2cc(F)cc(C(F)(F)F)c2)[C@H]1c1ccc(CO)cc1", -0.582]
]}

###

- target-desc: Follistatin-related protein 3 (Homo sapiens) (UniProt O95633)
- Sequence (O95633 whole entry, looked up): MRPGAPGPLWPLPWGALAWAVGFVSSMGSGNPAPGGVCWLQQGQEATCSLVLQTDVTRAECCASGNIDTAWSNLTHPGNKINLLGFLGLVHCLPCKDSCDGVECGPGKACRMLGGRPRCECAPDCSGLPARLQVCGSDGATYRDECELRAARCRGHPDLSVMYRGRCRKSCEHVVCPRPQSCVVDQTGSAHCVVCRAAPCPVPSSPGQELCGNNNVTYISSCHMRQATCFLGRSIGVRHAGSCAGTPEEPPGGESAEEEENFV
- run-description: FSTL3 binders on small-molecule microarrays, primary screen, biochemical, small-molecule microarray, 635 nm fluorescence (AID 1105);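 further: score merges emission near 667 nm and signal to noise per printed spot across three slides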
- run-conditions: FSTL3 binding, higher = more signal

{"columns": ["compound", "composite z-score"],
 "data": [
  ["CC(C)C(=C=CC[C@@H](O)c1ccccc1OCCO)C[C@@H](O)c1ccccn1", 0.425],
  ["O=c1oc(-c2ccccc2)nc2cc(Br)ccc12", 0.582],
  ["COCCOC(=O)N1C(=O)[C@@]2(c3cc(C#CCC(C(=O)OC)C(=O)OC)ccc31)[C@H](c1ccccc1OCCO)N1[C@H](c3ccccc3)[C@H](c3ccccc3)OC(=O)[C@H]1[C@@H]2C(N)=O", 1.13],
  ["CCN(CC)c1ccc(N2CC=CC34O[C@@H]5C=CCCOC(=O)C5[C@H]3C(=O)N(CCCCCO)[C@@H]4C2=O)cc1 (some centres not stated)", -0.339],
  ["O=C1O[C@@H](c2ccccc2)[C@@H](c2ccccc2)N2[C@@H](c3ccc(OCCO)cc3)[C@]3(C(=O)Nc4ccccc43)[C@@H](C(=O)Nc3nc4ccccc4s3)[C@H]12", 1.15],
  ["COC(=O)[C@@]1(Cc2ccccc2N=[N+]=[N-])COC(c2ccc(OCCCO)cc2)=N1", -0.0373],
  ["COc1ccc(C#Cc2ccc3c(c2)[C@]2(C(=O)N3)[C@H](C(=O)NC[C@H](O)c3ccccc3)[C@H]3C(=O)O[C@H](c4ccccc4)[C@H](c4ccccc4)N3[C@@H]2c2ccccc2OCCO)cc1", 1.16]
]}
